# METHOD SUMMARY: Iron chelating activity assessed as removal of [59]-Fe from [59]-Fe-labeled transferrin at 1 mM measured per hr by spectrometric analysis
# Type: physicochemical
# COND: 1000 µM
Entries annotated with measured Activity
PARAMETER: Activity

compound=NC(=S)N/N=C/c1cnccn1 recorded_result=0.3%
compound=C(=N\Nc1cnccn1)/c1cnccn1 recorded_result=0.1%
compound="O=c1cccccc1O [TROPOLONE]" recorded_result=19.7%
compound="CC(=O)N(O)CCCCCNC(=O)CCC(=O)N(O)CCCCCNC(=O)CCC(=O)N(O)CCCCCN [DEFEROXAMINE]" recorded_result=1%
compound=S=C([S-])N/N=C/c1cnccn1.[Na+] recorded_result=0.4%
compound=N/C(S)=N/N=C/c1ccccn1 recorded_result=0.3%

###

# METHOD SUMMARY: Iron chelating activity assessed as removal of iron from ferritin after 20 hrs by atomic absorption spectrophotometric analysis
# Assay type: physicochemical
PARAMETER: Activity (µM)

structure_smiles=NC(=S)N/N=C/c1cnccn1 censoring_qualifier== recorded_result=1.4
structure_smiles=C(=N\Nc1cnccn1)/c1cnccn1 censoring_qualifier=< recorded_result=1
structure_smiles=S=C([S-])N/N=C/c1cnccn1.[Na+] censoring_qualifier== recorded_result=48.8
structure_smiles=CC(=O)N(O)CCCCCNC(=O)CCC(=O)N(O)CCCCCNC(=O)CCC(=O)N(O)CCCCCN censoring_qualifier== recorded_result=25.2
structure_smiles=O=c1cccccc1O censoring_qualifier== recorded_result=4.1
